IC50 values by entry
assay: Anticancer activity against human H460 cells by HTS assay; type: functional, cell-based; conditions: NCI-H460
Please give a number only; it is taken to be in µM.

Here is how some compounds turned out for IC50.
[[record]]
inputsmiles = "COc1cc(O)c2c(=O)c(OC)c(-c3ccc(OC)c(O)c3)oc2c1"
reportedendpoint = "IC50"
unitslabel = "µM"
experimentalresult = 12.8

[[record]]
inputsmiles = "COc1cc(O)c2c(=O)c(O)c(-c3ccc(OC)c(O)c3)oc2c1"
reportedendpoint = "IC50"
unitslabel = "µM"
experimentalresult = 2.75

[[record]]
inputsmiles = "CCCCOc1c(-c2ccc(O)c(O)c2)oc2cc(O)cc(O)c2c1=O"
reportedendpoint = "IC50"
unitslabel = "µM"
experimentalresult = 19.7


Fill in the blank: the reported IC50 of CCCCOc1ccc(-c2oc3cc(O)cc(O)c3c(=O)c2O)cc1O is ____.
6.84

Fill in the blank: the reported IC50 of CCOc1cc(O)c2c(=O)c(OCC)c(-c3ccc(O)c(O)c3)oc2c1 is ____.
5.25

Fill in the blank: the reported IC50 of CCCOc1cc(O)c2c(=O)c(OCCC)c(-c3ccc(OCCC)c(O)c3)oc2c1 is ____.
28.8

Fill in the blank: the reported IC50 of COc1ccc(-c2oc3cc(O)cc(O)c3c(=O)c2O)cc1O is ____.
4.45

Fill in the blank: the reported IC50 of CCCOc1cc(O)c2c(=O)c(OCCC)c(-c3ccc(O)c(O)c3)oc2c1 is ____.
31.1

Fill in the blank: the reported IC50 of O=c1c(O)c(-c2ccc(O)c(O)c2)oc2cc(O)cc(O)c12 is ____.
9.62

Fill in the blank: the reported IC50 of COc1cc(O)c2c(=O)c(OC)c(-c3ccc(O)c(O)c3)oc2c1 is ____.
7.02

Fill in the blank: the reported IC50 of CCOc1cc(O)c2c(=O)c(OCC)c(-c3ccc(OCC)c(OCC)c3)oc2c1 is ____.
22.1

---

test: Anticancer activity against human LOXIMVI cells by HTS assay; format: functional, cell-based; settings: LOX IMVI
reportedEndpoint: pIC50
# pIC50 is unitless: minus log10 of the molar concentration; print number only

[[record]]
inputsmiles = "CCCCOc1cc(O)c2c(=O)c(O)c(-c3ccc(OCCCC)c(O)c3)oc2c1"
experimentalresult = 5.63

[[record]]
inputsmiles = "CCCCOc1cc(O)c2c(=O)c(OCCCC)c(-c3ccc(O)c(O)c3)oc2c1"
experimentalresult = 5.59

[[record]]
inputsmiles = "CCOc1ccc(-c2oc3cc(O)cc(O)c3c(=O)c2O)cc1O"
experimentalresult = 5.94

[[record]]
inputsmiles = "COc1cc(O)c2c(=O)c(OC)c(-c3ccc(OC)c(OC)c3)oc2c1"
experimentalresult = 6.41


Fill in the blank: the reported pIC50 of CCOc1cc(O)c2c(=O)c(O)c(-c3ccc(OCC)c(O)c3)oc2c1 is ____.
4.31

Fill in the blank: the reported pIC50 of COc1cc(O)c2c(=O)c(OC)c(-c3ccc(OC)c(O)c3)oc2c1 is ____.
4.34

Fill in the blank: the reported pIC50 of CCCOc1c(-c2ccc(O)c(O)c2)oc2cc(O)cc(O)c2c1=O is ____.
5.62

Fill in the blank: the reported pIC50 of CCOc1cc(O)c2c(=O)c(OCC)c(-c3ccc(OCC)c(OCC)c3)oc2c1 is ____.
4.71

---

IC50 values by entry
tested on: NCI-H1792; assay: Anticancer activity against human NCI-H1792 cells by HTS assay; type: functional, cell-based
Please give a number only; it is taken to be in µM.

So what IC50 did COc1cc(O)c2c(=O)c(OC)c(-c3ccc(O)c(O)c3)oc2c1 get with NCI-H1792?
19.7

So what IC50 did CCCOc1cc(O)c2c(=O)c(OCCC)c(-c3ccc(O)c(O)c3)oc2c1 get with NCI-H1792?
30.6

---

test: Anticancer activity against human H460 cells by HTS assay; format: functional, cell-based; details: NCI-H460
reportedEndpoint: pIC50
# pIC50 is unitless: minus log10 of the molar concentration; print number only

[[record]]
compound = "CCCCOc1cc(O)c2c(=O)c(OCCCC)c(-c3ccc(O)c(O)c3)oc2c1"
experimentalresult = 5.52

[[record]]
compound = "CCCOc1cc(O)c2c(=O)c(O)c(-c3ccc(OCCC)c(O)c3)oc2c1"
experimentalresult = 5.94


Fill in the blank: the reported pIC50 of CCOc1ccc(-c2oc3cc(O)cc(O)c3c(=O)c2O)cc1O is ____.
5.99

Fill in the blank: the reported pIC50 of COc1c(-c2ccc(O)c(O)c2)oc2cc(O)cc(O)c2c1=O [3-O-METHYLQUERCETIN] is ____.
5.00

Fill in the blank: the reported pIC50 of CCCOc1ccc(-c2oc3cc(O)cc(O)c3c(=O)c2O)cc1O is ____.
4.92

Fill in the blank: the reported pIC50 of CCOc1cc(O)c2c(=O)c(O)c(-c3ccc(OCC)c(O)c3)oc2c1 is ____.
5.01

---

pIC50 values by entry
test: Anticancer activity against human SKBR cells by HTS assay; assay type: functional, cell-based
# pIC50 is unitless: minus log10 of the molar concentration; print number only

Here is how some compounds turned out for pIC50.
[[record]]
inputsmiles = "CCCCOc1c(-c2ccc(O)c(O)c2)oc2cc(O)cc(O)c2c1=O"
experimentalresult = 5.04

[[record]]
inputsmiles = "CCCOc1cc(O)c2c(=O)c(OCCC)c(-c3ccc(O)c(O)c3)oc2c1"
experimentalresult = 4.46

[[record]]
inputsmiles = "CCCCOc1cc(O)c2c(=O)c(OCCCC)c(-c3ccc(O)c(O)c3)oc2c1"
experimentalresult = 5.34

[[record]]
inputsmiles = "CCCOc1cc(O)c2c(=O)c(O)c(-c3ccc(OCCC)c(O)c3)oc2c1"
experimentalresult = 5.33

[[record]]
inputsmiles = "CCCOc1cc(O)c2c(=O)c(OCCC)c(-c3ccc(OCCC)c(O)c3)oc2c1"
experimentalresult = 4.92


Fill in the blank: the reported pIC50 of COc1cc(O)c2c(=O)c(O)c(-c3ccc(OC)c(O)c3)oc2c1 is ____.
5.08

Fill in the blank: the reported pIC50 of CCCOc1ccc(-c2oc3cc(O)cc(O)c3c(=O)c2O)cc1O is ____.
4.74

Fill in the blank: the reported pIC50 of COc1cc(O)c2c(=O)c(OC)c(-c3ccc(OC)c(O)c3)oc2c1 is ____.
4.96

Fill in the blank: the reported pIC50 of COc1ccc(-c2oc3cc(O)cc(O)c3c(=O)c2O)cc1O is ____.
5.10

Fill in the blank: the reported pIC50 of O=c1c(O)c(-c2ccc(O)c(O)c2)oc2cc(O)cc(O)c12 is ____.
4.78

Fill in the blank: the reported pIC50 of COc1cc(O)c2c(=O)c(OC)c(-c3ccc(O)c(O)c3)oc2c1 is ____.
5.28

Fill in the blank: the reported pIC50 of CCCCOc1ccc(-c2oc3cc(O)cc(O)c3c(=O)c2O)cc1O is ____.
5.17

Fill in the blank: the reported pIC50 of CCOc1cc(O)c2c(=O)c(OCC)c(-c3ccc(OCC)c(O)c3)oc2c1 is ____.
5.18

Fill in the blank: the reported pIC50 of CCCCOc1cc(O)c2c(=O)c(O)c(-c3ccc(OCCCC)c(O)c3)oc2c1 is ____.
5.36

---

log10(IC50) values by entry
test system: A549; assay: Anticancer activity against human A549 cells by HTS assay; format: functional, cell-based
Please be aware that the numbers have been log10-transformed from IC50 in µM.

[[record]]
inputsmiles = "CCCOc1c(-c2ccc(O)c(O)c2)oc2cc(O)cc(O)c2c1=O"
experimentalresult = -0.10


So what log10(IC50) did CCCOc1cc(O)c2c(=O)c(OCCC)c(-c3ccc(OCCC)c(OCCC)c3)oc2c1 get with A549?
1.68

So what log10(IC50) did COc1cc(O)c2c(=O)c(OC)c(-c3ccc(OC)c(O)c3)oc2c1 get with A549?
1.32

So what log10(IC50) did CCOc1cc(O)c2c(=O)c(OCC)c(-c3ccc(OCC)c(O)c3)oc2c1 get with A549?
1.35

So what log10(IC50) did CCCCOc1cc(O)c2c(=O)c(OCCCC)c(-c3ccc(OCCCC)c(O)c3)oc2c1 get with A549?
1.50

So what log10(IC50) did CCOc1cc(O)c2c(=O)c(O)c(-c3ccc(OCC)c(O)c3)oc2c1 get with A549?
1.35
